Data credit: paper PMC6268586

Assay: Tissue distribution of THP, DHC and protopine in rat tissues after gastric gavage administration (HPLC-UV, non-compartmental analysis)
Format: in vivo, Wistar male rats
Conditions: male, Wistar, po, 6.45 mg/kg, rat liver, read-out: Cmax of THP
readout type: Cmax (ng/mL)
Dear colleague, please return just the value in ng/mL, with no unit written.

For the molecule COc1cc2c(cc1OC)[C@@H]1Cc3ccc(OC)c(OC)c3CN1CC2 [THP, tetrahydropalmatine] , what Cmax is on record?
7840

* * *

Experiment: Tissue distribution of THP, DHC and protopine in rat tissues after gastric gavage administration (HPLC-UV, non-compartmental analysis)
Format: in vivo, Wistar male rats
Settings: male, Wistar, po, 6.45 mg/kg, rat cerebellum, read-out: MRT of THP
readout type: MRT

For the molecule COc1cc2c(cc1OC)[C@@H]1Cc3ccc(OC)c(OC)c3CN1CC2 [THP, tetrahydropalmatine] , what MRT is on record?
9.2 h

* * *

Experiment: Tissue distribution of THP, DHC and protopine in rat tissues after gastric gavage administration (HPLC-UV, non-compartmental analysis)
Format: in vivo, Wistar male rats
Conditions: male, Wistar, po, 6.45 mg/kg, rat striatum, read-out: Tmax of THP
readout type: Tmax
Entry format: amount then unit.

For the compound COc1cc2c(cc1OC)[C@@H]1Cc3ccc(OC)c(OC)c3CN1CC2 [THP, tetrahydropalmatine] , what Tmax is on record?
12.6 min

* * *

Experiment: Tissue distribution of THP, DHC and protopine in rat tissues after gastric gavage administration (HPLC-UV, non-compartmental analysis)
Format: in vivo, Wistar male rats
Conditions: male, Wistar, po, 6.45 mg/kg, rat cerebellum, read-out: Tmax of THP
readout type: Tmax
Entry format: amount then unit.

For the compound COc1cc2c(cc1OC)[C@@H]1Cc3ccc(OC)c(OC)c3CN1CC2 [THP, tetrahydropalmatine] , what Tmax is on record?
15.6 min

* * *

Experiment: Tissue distribution of THP, DHC and protopine in rat tissues after gastric gavage administration (HPLC-UV, non-compartmental analysis)
Assay type: in vivo, Wistar male rats
Settings: male, Wistar, po, 26.1 mg/kg, rat kidney, read-out: AUC0–24 h of DHC
readout type: AUC(0-t) (ng·h/mL)
Dear colleague, please return just the value in ng·h/mL, with no unit written.

For the compound COc1cc2c(cc1OC)-c1c(C)c3ccc(OC)c(OC)c3c[n+]1CC2 [DHC, dehydrocorydaline] , what AUC(0-t) is on record?
890

* * *

Experiment: Tissue distribution of THP, DHC and protopine in rat tissues after gastric gavage administration (HPLC-UV, non-compartmental analysis)
Type: in vivo, Wistar male rats
Conditions: male, Wistar, po, 26.1 mg/kg, rat cerebrum, read-out: Cmax of DHC
readout type: Cmax
Entry format: amount then unit.

For the compound COc1cc2c(cc1OC)-c1c(C)c3ccc(OC)c(OC)c3c[n+]1CC2 [DHC, dehydrocorydaline] , what Cmax is on record?
50 ng/mL

* * *

Assay: Tissue distribution of THP, DHC and protopine in rat tissues after gastric gavage administration (HPLC-UV, non-compartmental analysis)
Assay type: in vivo, Wistar male rats
Conditions: male, Wistar, po, 4.52 mg/kg, rat hippocampus, read-out: Cmax of protopine
readout type: Cmax (ng/mL)
Dear colleague, please return just the value in ng/mL, with no unit written.

For the compound CN1CCc2cc3c(cc2C(=O)Cc2ccc4c(c2C1)OCO4)OCO3 [protopine] , what Cmax is on record?
1560
